# pIC50 values compiled below
Tested on: MCF7
Assay: Cytotoxicity against human MCF7 cells assessed as decrease in cell proliferation after 48 hrs by MTT colorimetric assay
Format: functional, cell-based
Details: Homo sapiens, MCF7, 48 h
// pIC50: -log10(molar conc.)

Here's what some known entries look like.
pIC50 measured on `C[C@H](CO)CC[C@H]1O[C@H]2C[C@H]3[C@@H]4CC[C@@H]5C[C@@H](OCc6ccc(F)cc6)CC[C@]5(C)[C@H]4CC[C@]3(C)[C@H]2[C@@H]1C` = 4.36

pIC50 measured on `C[C@@H](CC[C@H]1O[C@H]2C[C@H]3[C@@H]4CC[C@@H]5C[C@@H](OCc6ccc(F)cc6)CC[C@]5(C)[C@H]4CC[C@]3(C)[C@H]2[C@@H]1C)CN1CCNCC1` = 4.78

pIC50 measured on `CCN(CC)C[C@@H](C)CC[C@H]1O[C@H]2C[C@H]3[C@@H]4CC[C@@H]5C[C@@H](OCc6ccc(OC)cc6)CC[C@]5(C)[C@H]4CC[C@]3(C)[C@H]2[C@@H]1C` = 5.32

More entries:
pIC50 measured on `C[C@H]1CC[C@@]2(OC1)O[C@H]1C[C@H]3[C@@H]4CC[C@@H]5C[C@@H](O)CC[C@]5(C)[C@H]4CC[C@]3(C)[C@H]1[C@@H]2C` = 4.31

###

Tested on: MCF7
Experiment: Cytotoxicity against human MCF7 cells assessed as decrease in cell proliferation after 48 hrs by MTT colorimetric assay
Assay type: functional, cell-based
Details: Homo sapiens, MCF7, 48 h
parameter: pIC50
// pIC50: -log10(molar conc.)

pIC50 measured on `CCN(CC)C[C@@H](C)CC[C@H]1O[C@H]2C[C@H]3[C@@H]4CC[C@@H]5C[C@@H](OCc6ccccc6)CC[C@]5(C)[C@H]4CC[C@]3(C)[C@H]2[C@@H]1C` = 4.03

We now examine a further compound.
pIC50 measured on `C[C@@H](CC[C@H]1O[C@H]2C[C@H]3[C@@H]4CC[C@@H]5C[C@@H](OCc6ccccc6)CC[C@]5(C)[C@H]4CC[C@]3(C)[C@H]2[C@@H]1C)CN1CCCC1` = 4.43

###

# IC50 values compiled below
Test system: MCF7
Assay: Cytotoxicity against human MCF7 cells assessed as decrease in cell proliferation after 48 hrs by MTT colorimetric assay
Type: functional, cell-based
Settings: Homo sapiens, MCF7, 48 h
The reply should contain only the number, in µM.

Here's what some known entries look like.
IC50 measured on `CCN(CC)C[C@@H](C)CC[C@H]1O[C@H]2C[C@H]3[C@@H]4CC[C@@H]5C[C@@H](OCc6ccc(F)cc6)CC[C@]5(C)[C@H]4CC[C@]3(C)[C@H]2[C@@H]1C` = 45.2

IC50 measured on `C[C@@H](CC[C@H]1O[C@H]2C[C@H]3[C@@H]4CC[C@@H]5C[C@@H](OCc6ccc(F)cc6)CC[C@]5(C)[C@H]4CC[C@]3(C)[C@H]2[C@@H]1C)CN1CCCC1` = 5.13

IC50 measured on `C[C@@H](CC[C@H]1O[C@H]2C[C@H]3[C@@H]4CC[C@@H]5C[C@@H](OCc6ccc(F)cc6)CC[C@]5(C)[C@H]4CC[C@]3(C)[C@H]2[C@@H]1C)CN(C)C` = 17.9

More entries:
IC50 measured on `COc1ccc(CO[C@H]2CC[C@@]3(C)[C@H](CC[C@@H]4[C@@H]3CC[C@]3(C)[C@H]5[C@H](C)[C@@H](CC[C@H](C)CN6CCN(C)CC6)O[C@H]5C[C@@H]43)C2)cc1` = 3.74

IC50 measured on `C[C@@H](CC[C@H]1O[C@H]2C[C@H]3[C@@H]4CC[C@@H]5C[C@@H](OCc6ccc(F)cc6)CC[C@]5(C)[C@H]4CC[C@]3(C)[C@H]2[C@@H]1C)CN1CCN(C)CC1` = 44.1

IC50 measured on `C[C@H](CO)CC[C@H]1O[C@H]2C[C@H]3[C@@H]4CC[C@@H]5C[C@@H](OCc6ccccc6)CC[C@]5(C)[C@H]4CC[C@]3(C)[C@H]2[C@@H]1C` = 22.1
